Recorded IC50 for the following compounds
- measurement_target: EGFR del19/C797S (Homo sapiens, UniProt P00533, C797S/DEL746-750)
- Sequence (P00533 with tags, fused parts or gaps DEL746-750/C797S): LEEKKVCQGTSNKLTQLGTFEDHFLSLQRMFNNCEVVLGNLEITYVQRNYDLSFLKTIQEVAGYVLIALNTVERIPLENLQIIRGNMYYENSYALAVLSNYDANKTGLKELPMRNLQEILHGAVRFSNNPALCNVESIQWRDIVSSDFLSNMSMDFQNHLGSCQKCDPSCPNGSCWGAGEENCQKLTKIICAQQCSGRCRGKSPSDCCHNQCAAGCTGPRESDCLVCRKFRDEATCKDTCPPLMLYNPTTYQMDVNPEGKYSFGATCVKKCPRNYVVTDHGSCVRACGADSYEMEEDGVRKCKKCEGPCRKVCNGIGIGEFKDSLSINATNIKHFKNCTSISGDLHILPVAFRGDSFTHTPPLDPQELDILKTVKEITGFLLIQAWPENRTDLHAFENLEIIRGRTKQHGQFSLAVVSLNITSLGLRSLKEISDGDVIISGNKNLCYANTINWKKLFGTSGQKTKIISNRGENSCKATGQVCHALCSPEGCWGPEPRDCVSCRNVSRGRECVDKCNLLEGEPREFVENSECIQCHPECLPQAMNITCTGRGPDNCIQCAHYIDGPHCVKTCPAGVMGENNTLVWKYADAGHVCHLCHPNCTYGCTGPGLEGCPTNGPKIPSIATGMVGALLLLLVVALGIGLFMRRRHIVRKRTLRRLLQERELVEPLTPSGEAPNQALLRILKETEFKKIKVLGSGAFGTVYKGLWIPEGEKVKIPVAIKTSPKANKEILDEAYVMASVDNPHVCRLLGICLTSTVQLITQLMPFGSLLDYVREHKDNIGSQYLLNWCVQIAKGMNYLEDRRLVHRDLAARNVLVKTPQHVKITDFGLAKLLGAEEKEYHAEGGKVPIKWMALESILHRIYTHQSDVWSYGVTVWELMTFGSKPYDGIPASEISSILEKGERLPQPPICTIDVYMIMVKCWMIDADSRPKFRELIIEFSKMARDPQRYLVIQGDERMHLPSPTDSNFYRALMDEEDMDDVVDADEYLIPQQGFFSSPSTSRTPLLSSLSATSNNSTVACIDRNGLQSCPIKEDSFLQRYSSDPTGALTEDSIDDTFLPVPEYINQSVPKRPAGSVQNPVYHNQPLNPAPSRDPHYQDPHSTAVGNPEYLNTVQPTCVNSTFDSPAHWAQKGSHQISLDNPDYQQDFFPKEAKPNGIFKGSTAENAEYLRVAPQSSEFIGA
- measurement_notes: Biochemical EGFR kinase assay (Lance Ultra TR-FRET), double mutant del19/C797S
- assay_conditions: Km ATP; read-out: IC50 del19/C797S (nM) Km ATP
- Protocol: Biochemical EGFR kinase assays were conducted using Lance Ultra time-resolved fluorescence resonance energy transfer (TR-FRET) technology from Perkin-Elmer. […] Each kinase reactions were incubated at room temperature for 1 hour and then stopped by the addition of 4 μL of stop solution (10 mM EDTA). […] After 60 minutes incubation at room temperature the LANCE signal was measured on an EnVision Multilabel Reader (Perkin-Elmer). […]
Record the value in nM, omitting the unit from your answer.

O=S(=O)(C1CC1)n1cc(-c2nccc(Nc3cc(N[C@H]4CC[C@@H](CN5CCC5)CC4)c(-c4ccn(CC(F)F)n4)cn3)n2)cn1 [Example 247] yielded IC50 of 0.2

CS(=O)(=O)n1cc(-c2nccc(Nc3cc(N[C@H]4CC[C@@](C)(O)CC4)c(-c4ccn(C(F)F)n4)cn3)n2)cn1 [Example 112] yielded IC50 of 34.5

Cn1nc(-c2cnc(Nc3ccnc(-c4cnn(S(=O)(=O)C5CC5)c4)n3)cc2N[C@H]2CC[C@@](C)(O)CC2)cc1C(F)(F)F [Example 252] yielded IC50 of 1.2

* * *

Recorded log10 IC50 for the following compounds
- measurement_target: EGFR del19/T790M/C797S (Homo sapiens, UniProt P00533, C797S/DEL746-750/T790M)
- Sequence (P00533 with tags, fused parts or gaps DEL746-750/T790M/C797S): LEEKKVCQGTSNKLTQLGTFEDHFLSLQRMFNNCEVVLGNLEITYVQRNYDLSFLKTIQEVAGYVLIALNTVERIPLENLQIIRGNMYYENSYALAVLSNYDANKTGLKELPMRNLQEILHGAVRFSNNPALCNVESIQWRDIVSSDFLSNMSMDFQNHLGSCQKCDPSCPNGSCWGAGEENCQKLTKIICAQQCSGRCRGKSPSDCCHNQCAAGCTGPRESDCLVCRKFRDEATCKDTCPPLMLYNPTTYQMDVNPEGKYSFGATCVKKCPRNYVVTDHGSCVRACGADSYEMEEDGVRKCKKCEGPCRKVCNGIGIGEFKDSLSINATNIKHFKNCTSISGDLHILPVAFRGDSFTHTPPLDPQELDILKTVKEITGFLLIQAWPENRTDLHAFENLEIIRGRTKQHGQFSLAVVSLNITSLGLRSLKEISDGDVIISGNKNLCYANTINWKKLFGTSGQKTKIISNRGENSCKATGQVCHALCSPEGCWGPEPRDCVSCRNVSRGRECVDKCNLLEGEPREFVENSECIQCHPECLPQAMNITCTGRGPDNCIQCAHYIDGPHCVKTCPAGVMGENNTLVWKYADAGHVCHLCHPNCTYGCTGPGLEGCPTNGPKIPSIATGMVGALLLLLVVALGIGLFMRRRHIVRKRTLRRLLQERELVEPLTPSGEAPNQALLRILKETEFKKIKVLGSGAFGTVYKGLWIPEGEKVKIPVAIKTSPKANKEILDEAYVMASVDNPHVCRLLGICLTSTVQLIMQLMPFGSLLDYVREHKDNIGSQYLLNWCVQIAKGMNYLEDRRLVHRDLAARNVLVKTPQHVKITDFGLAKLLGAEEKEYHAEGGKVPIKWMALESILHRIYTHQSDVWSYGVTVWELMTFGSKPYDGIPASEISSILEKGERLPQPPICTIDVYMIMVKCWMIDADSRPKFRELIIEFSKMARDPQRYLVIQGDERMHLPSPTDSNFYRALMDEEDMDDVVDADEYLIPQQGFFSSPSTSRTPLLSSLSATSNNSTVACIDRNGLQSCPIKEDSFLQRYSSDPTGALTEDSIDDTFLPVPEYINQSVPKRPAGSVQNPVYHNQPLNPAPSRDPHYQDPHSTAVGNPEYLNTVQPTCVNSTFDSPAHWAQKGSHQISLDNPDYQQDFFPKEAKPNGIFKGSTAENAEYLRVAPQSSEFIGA
- measurement_notes: Biochemical EGFR kinase assay (Lance Ultra TR-FRET), triple mutant del19/T790M/C797S
- assay_conditions: IC50 del19/T790M/C797S (nM) 100 μM ATP, 100 μM ATP
Recorded IC50 (log10, nM)

O=S(=O)(C1CC1)n1cc(-c2nccc(Nc3cc(N[C@H]4CCC[C@H](CO)C4)c(-c4ccn(CC(F)(F)F)n4)cn3)n2)cn1 [Example 271]: 0.15
O=S(=O)(C1CC1)n1cc(-c2nccc(Nc3cc(N[C@H]4CC[C@@H](CO)CC4)c(-c4cc5n(n4)CCCC5)cn3)n2)cn1 [Example 60]: 0.63
O=S(=O)(C1CC1)n1cc(-c2nccc(Nc3cc(NC4CCC5(CC4)CNC5)c(-c4ccn(C(F)F)n4)cn3)n2)cn1 [Example 27]: -0.22
CN(C)C(=O)C[C@H]1CC[C@@H](Nc2cc(Nc3ccnc(-c4cnn(S(=O)(=O)C5CC5)c4)n3)ncc2-c2cc(C(F)(F)F)n(C)n2)CC1 [Example 258]: 0.71
Cn1nc(-c2cnc(Nc3ccnc(-c4cnn(S(=O)(=O)C5CC5)c4)n3)cc2N[C@H]2CC[C@@H](CN3CCC3)CC2)cc1C(F)(F)F [Example 264]: 0.15

Now take the following compound into account.
CN[C@H]1CC[C@@H](Oc2cc(Nc3ccnc(-c4cnn(S(=O)(=O)C5CC5)c4)n3)ncc2-c2cnn(C(F)F)c2)CC1 [Example 69] yielded log10 IC50 of -0.30

* * *

Recorded IC50 for the following molecules
- measurement_target: EGFR del19/T790M/C797S (Homo sapiens, UniProt P00533, C797S/DEL746-750/T790M)
- measurement_notes: Biochemical EGFR kinase assay (Lance Ultra TR-FRET), triple mutant del19/T790M/C797S
- assay_conditions: Km ATP; read-out: IC50 del19/T790M/C797S (nM) Km ATP

Cn1ccc(-c2cnc(Nc3ccnc(-c4cnn(S(=O)(=O)C5CC5)c4)n3)cc2N[C@H]2CC[C@](O)(C(F)F)CC2)n1: 0.3 nM
O=S(=O)(C1CC1)n1cc(-c2nccc(Nc3cc(N[C@H]4CC[C@H](CCO)CC4)c(-c4ccn(CC(F)(F)F)n4)cn3)n2)cn1: 7.2 nM

`Cn1nc(-c2cnc(Nc3ccnc(-c4cnn(S(=O)(=O)C5CC5)c4)n3)cc2N[C@H]2CC[C@@](C)(O)CC2)cc1C(C)(C)O` yielded IC50 of 0.4 nM

* * *

- measurement_target: EGFR del19/T790M/C797S (Homo sapiens, UniProt P00533, C797S/DEL746-750/T790M)
- measurement_notes: Biochemical EGFR kinase assay (Lance Ultra TR-FRET), triple mutant del19/T790M/C797S
- assay_conditions: Km ATP; read-out: IC50 del19/T790M/C797S, Km ATP
assay_metric: IC50 (pM)
Record the value in pM, omitting the unit from your answer.

CN1CCC(n2ccc(-c3cnc(Nc4ccnc(-c5cnn(CC(F)F)c5)n4)cc3N[C@H]3CC[C@@](C)(O)CC3)n2)CC1 [Example 342]: 200
C[C@]1(O)CC[C@@H](Nc2cc(Nc3ccnc(-c4cnn(CC(F)(F)F)c4)n3)ncc2-c2ccn(CC(F)F)n2)CC1 [Example 344]: 400
Cn1nc(-c2cnc(Nc3ccnc(-c4cnn(CC(F)F)c4)n3)cc2N[C@H]2CC[C@@](C)(O)CC2)cc1C(F)(F)F [Example 331]: 2300
CC1(O)CCC(Nc2cc(Nc3ccnc(N4CCC(F)(F)C(O)C4)n3)ncc2-c2ccn(C(F)F)n2)CC1 (stereo not shown) [Example 350]: 4200
C[C@]1(O)CC[C@@H](Nc2nc(Nc3ccnc(-c4cnn(S(=O)(=O)C5CC5)c4)c3)ncc2-c2ccn(CC(F)F)n2)CC1 [Example 357]: 200
CC(C)Nc1nc(Nc2ccnc(-c3cnn(S(=O)(=O)C4CC4)c3)c2)ncc1-c1ccn(C(F)F)n1 [Example 363]: 3400

Now take the following compound into account.
Cn1nc(-c2cnc(Nc3ccnc(N4CCC(O)C(F)(F)C4)n3)cc2NC2CCC(C)(O)CC2)cc1C(F)(F)F (stereo not shown) [Example 353] yielded IC50 of 700

* * *

- measurement_target: EGFR del19/T790M/C797S (Homo sapiens, UniProt P00533, C797S/DEL746-750/T790M)
- measurement_notes: Biochemical EGFR kinase assay (Lance Ultra TR-FRET), triple mutant del19/T790M/C797S
- assay_conditions: IC50 del19/T790M/C797S (nM) 100 μM ATP, 100 μM ATP
Recorded IC50 for the following compounds
Record the value in nM, omitting the unit from your answer.

CN(C)C[C@]1(O)CC[C@@H](Nc2cc(Nc3ccnc(-c4cnn(S(=O)(=O)C5CC5)c4)n3)ncc2-c2ccn(C)n2)CC1: 0.5
CC(C)Nc1cc(Nc2ccnc(-c3cnn(S(=O)(=O)C4CC4)c3)n2)ncc1-c1csc(C(C)(C)O)n1: 2.6

Now take the following compound into account.
`O=C1CC[C@]2(CC[C@H](Nc3cc(Nc4ccnc(-c5cnn(S(=O)(=O)C6CC6)c5)n4)ncc3-c3ccn(C(F)F)n3)CC2)N1` yielded IC50 of 0.3

* * *

- measurement_target: EGFR wildtype (WT) (Homo sapiens)
- Sequence (P00533 25-1210): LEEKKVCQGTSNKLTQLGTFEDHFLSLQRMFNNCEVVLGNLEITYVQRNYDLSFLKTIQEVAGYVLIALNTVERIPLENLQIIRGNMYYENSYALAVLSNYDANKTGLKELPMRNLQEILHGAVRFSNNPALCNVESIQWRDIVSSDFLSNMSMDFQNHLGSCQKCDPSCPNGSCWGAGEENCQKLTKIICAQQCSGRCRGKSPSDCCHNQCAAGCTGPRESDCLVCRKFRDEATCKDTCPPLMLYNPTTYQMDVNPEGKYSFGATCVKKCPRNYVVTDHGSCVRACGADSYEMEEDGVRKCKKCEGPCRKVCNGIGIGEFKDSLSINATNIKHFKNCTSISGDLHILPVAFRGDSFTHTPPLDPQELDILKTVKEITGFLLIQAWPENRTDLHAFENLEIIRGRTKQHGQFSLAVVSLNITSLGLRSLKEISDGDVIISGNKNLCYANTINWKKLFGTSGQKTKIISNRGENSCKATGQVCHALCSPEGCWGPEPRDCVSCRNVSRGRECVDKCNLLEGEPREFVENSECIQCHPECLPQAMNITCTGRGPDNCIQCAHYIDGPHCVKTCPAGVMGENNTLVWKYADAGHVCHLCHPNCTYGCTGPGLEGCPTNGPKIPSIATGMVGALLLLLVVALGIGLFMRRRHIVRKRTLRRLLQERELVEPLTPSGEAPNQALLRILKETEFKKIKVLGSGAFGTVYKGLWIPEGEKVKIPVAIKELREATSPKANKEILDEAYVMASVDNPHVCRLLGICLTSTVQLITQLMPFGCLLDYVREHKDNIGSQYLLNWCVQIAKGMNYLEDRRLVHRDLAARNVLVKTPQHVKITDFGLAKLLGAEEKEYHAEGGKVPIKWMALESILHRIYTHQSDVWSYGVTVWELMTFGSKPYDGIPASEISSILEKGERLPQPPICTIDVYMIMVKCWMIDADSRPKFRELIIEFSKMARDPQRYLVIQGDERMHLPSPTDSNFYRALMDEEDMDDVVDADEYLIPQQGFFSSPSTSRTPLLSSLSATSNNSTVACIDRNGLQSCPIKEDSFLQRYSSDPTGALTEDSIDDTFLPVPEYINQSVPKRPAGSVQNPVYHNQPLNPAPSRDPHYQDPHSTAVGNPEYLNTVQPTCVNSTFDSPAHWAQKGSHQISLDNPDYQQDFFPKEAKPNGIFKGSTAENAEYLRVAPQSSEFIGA
- measurement_notes: Biochemical EGFR kinase assay (Lance Ultra TR-FRET), wildtype
- assay_conditions: Km ATP; read-out: IC50 WT (nM) Km ATP
Recorded IC50 for the following compounds
Record the value in nM, omitting the unit from your answer.

COCn1ccc(-c2cnc(Nc3ccnc(-c4cnn(S(=O)(=O)C5CC5)c4)n3)cc2N[C@H]2CC[C@@](C)(O)CC2)n1 [Example 294] yielded IC50 of 0.9

CN(C)C[C@H]1C[C@H](CNc2cc(Nc3ccnc(-c4cnn(S(=O)(=O)C5CC5)c4)n3)ncc2-c2ccn(CC(F)F)n2)C1 [Example 249] yielded IC50 of 7.5

CC(C)(O)Cn1cc(-c2nccc(Nc3cc(N[C@H]4CC[C@@](C)(O)CC4)c(-c4ccn(C(F)F)n4)cn3)n2)cn1 [Example 142] yielded IC50 of 486

* * *

- measurement_target: EGFR del19/T790M/C797S (Homo sapiens, UniProt P00533, C797S/DEL746-750/T790M)
- measurement_notes: Biochemical EGFR kinase assay (Lance Ultra TR-FRET), triple mutant del19/T790M/C797S
- assay_conditions: Km ATP; read-out: IC50 del19/T790M/C797S (nM) Km ATP
# note: exactly 0.5 nM is not below, so it is Condition not met; use Condition met for IC50 strictly under it

Cn1ccc(-c2cnc(Nc3ccnc(-c4cnn(S(=O)(=O)C5CC5)c4)n3)cc2N[C@H]2CC[C@@H](C(C)(C)O)CC2)n1: Condition not met
Cn1ccc(-c2cnc(Nc3ccnc(-c4cnn(S(=O)(=O)C5CC5)c4)n3)cc2NC2CCCC(NCCF)C2)n1 (stereo not drawn): Condition met
O=S(=O)(C1CC1)n1cc(-c2nccc(Nc3cc(N[C@H]4CC[C@](O)(C(F)F)CC4)c(-c4ccn(C(F)F)n4)cn3)n2)cn1: Condition not met
O=S(=O)(C1CC1)n1cc(-c2nccc(Nc3cc(N[C@H]4CCC[C@H](O)C4)c(-c4ccn(C(F)F)n4)cn3)n2)cn1: Condition met

Now consider a different compound.
Does the reported IC50 of the following compound sit strictly below 0.5 nM? `CO[C@H]1CCN(c2nccc(Nc3cc(N[C@H]4CC[C@@](C)(O)CC4)c(-c4ccn(C(F)F)n4)cn3)n2)C[C@H]1F`
Condition not met
